Test system: breast line MDA468
Experiment: In vitro cell culture growth assay (MTS), MDA468
Assay type: cell-based, human
Settings: Homo sapiens, 72 h, MDA468 cells, three days after drug treatment
Param label: returns Yes when IC50 < 600 nM, returns No otherwise, including exact equality.

Prompt line: Say whether its IC50 is strictly beneath 600 nM. Entry: CCCOC(=O)N1CCC(n2ncc3c(N4CCOCC4)nc(-c4ccc(NC(=O)NC5CC5)cc4)nc32)CC1
Response line: Yes

Prompt line: Does OC1CCC(n2ncc3c(N4CCOCC4)nc(-c4ccc5[nH]ccc5c4)nc32)CC1 (stereo not drawn) have IC50 strictly under 600 nM?
Response line: No

Prompt line: A record lists NNC(=O)Nc1ccc(-c2nc(N3CCOCC3)c3cnn(C4CCN(C(=O)c5cccnc5)CC4)c3n2)cc1 [Compound 551] . Is its IC50 below 600 nM?
Response line: No

----------
System: breast line MDA468
Assay: In vitro cell culture growth assay (MTS), MDA468
Assay type: cell-based, human
Conditions: Homo sapiens, 72 h, MDA468 cells, three days after drug treatment
assay metric: pIC50
The scale used: pIC50 is minus the common logarithm of the concentration in molar units.

Recorded results for 2 compounds are shown here.
compound | recorded value
CC(=O)Nc1ccc(-c2nc(N3CCOCC3)c3cn[nH]c3n2)cc1 [Compound 233] | 5.07
COC(=O)N1CCC(n2ncc3c(N4CCOCC4)nc(-c4ccc(NC(=O)Oc5ccccc5F)cc4)nc32)CC1 [Compound 866] | 4.52

Prompt line: Could you share which pIC50 value was measured for FC(F)(F)CN1CCC(n2ncc3c(N4CCOCC4)nc(-c4ccc5[nH]ccc5c4)nc32)CC1 [Compound 471] ?
Response line: 5.11

Prompt line: # get_value(readout='pIC50', item= CN(C)CCNC(=O)Nc1ccc(-c2nc(N3CCOCC3)c3cnn(C4CCN(Cc5ccccc5)CC4)c3n2)cc1 [Compound 268] )
Response line: 6.22

----------
Tested on: breast line MDA468
Test: In vitro cell culture growth assay (MTS), MDA468
Format: cell-based, human
Details: Homo sapiens, 72 h, MDA468 cells, three days after drug treatment
Assign labels as follows, please: criterion met for IC50 below 3000 nM; criterion not met for IC50 equal to or exceeding 3000 nM.

molecule | assigned class
CNC(=O)Nc1ccc(-c2nc(N3CCOCC3)c3cnn(C4CCN(CC(=O)O)CC4)c3n2)cc1 | criterion not met
COC(=O)Nc1ccc(-c2nc(N3CCOCC3)c3cnn(C4CCN(CC(F)(F)F)CC4)c3n2)cc1 | criterion not met
CNC(=O)Nc1ccc(-c2nc(N3CCOCC3)c3cnn(C4CCN(Cc5cccc(O)c5)CC4)c3n2)cc1 | criterion met
O=C(Nc1ccccc1)Nc1ccc(-c2nc(N3CCOCC3)c3cnn(C4CCN(Cc5cccnc5)CC4)c3n2)cc1F [Compound 598] | criterion met

Prompt line: Threshold test, IC50 < 3000 nM: CCOC(=O)N1CCC(n2ncc3c(N4CCOC[C@@H]4C)nc(-c4ccc(NC(=O)NCCF)cc4)nc32)CC1
Response line: criterion met

Prompt line: Please state whether IC50 is below 3000 nM for c1ccc(CCN2CCC(n3ncc4c(N5CCOCC5)nc(-c5ccc6[nH]ccc6c5)nc43)CC2)cc1 [Compound 239]
Response line: criterion not met

----------
Each entry below lists one item and its recorded pIC50 value.
Biological target: PI3K (Homo sapiens)
Sequence (P42336 whole entry): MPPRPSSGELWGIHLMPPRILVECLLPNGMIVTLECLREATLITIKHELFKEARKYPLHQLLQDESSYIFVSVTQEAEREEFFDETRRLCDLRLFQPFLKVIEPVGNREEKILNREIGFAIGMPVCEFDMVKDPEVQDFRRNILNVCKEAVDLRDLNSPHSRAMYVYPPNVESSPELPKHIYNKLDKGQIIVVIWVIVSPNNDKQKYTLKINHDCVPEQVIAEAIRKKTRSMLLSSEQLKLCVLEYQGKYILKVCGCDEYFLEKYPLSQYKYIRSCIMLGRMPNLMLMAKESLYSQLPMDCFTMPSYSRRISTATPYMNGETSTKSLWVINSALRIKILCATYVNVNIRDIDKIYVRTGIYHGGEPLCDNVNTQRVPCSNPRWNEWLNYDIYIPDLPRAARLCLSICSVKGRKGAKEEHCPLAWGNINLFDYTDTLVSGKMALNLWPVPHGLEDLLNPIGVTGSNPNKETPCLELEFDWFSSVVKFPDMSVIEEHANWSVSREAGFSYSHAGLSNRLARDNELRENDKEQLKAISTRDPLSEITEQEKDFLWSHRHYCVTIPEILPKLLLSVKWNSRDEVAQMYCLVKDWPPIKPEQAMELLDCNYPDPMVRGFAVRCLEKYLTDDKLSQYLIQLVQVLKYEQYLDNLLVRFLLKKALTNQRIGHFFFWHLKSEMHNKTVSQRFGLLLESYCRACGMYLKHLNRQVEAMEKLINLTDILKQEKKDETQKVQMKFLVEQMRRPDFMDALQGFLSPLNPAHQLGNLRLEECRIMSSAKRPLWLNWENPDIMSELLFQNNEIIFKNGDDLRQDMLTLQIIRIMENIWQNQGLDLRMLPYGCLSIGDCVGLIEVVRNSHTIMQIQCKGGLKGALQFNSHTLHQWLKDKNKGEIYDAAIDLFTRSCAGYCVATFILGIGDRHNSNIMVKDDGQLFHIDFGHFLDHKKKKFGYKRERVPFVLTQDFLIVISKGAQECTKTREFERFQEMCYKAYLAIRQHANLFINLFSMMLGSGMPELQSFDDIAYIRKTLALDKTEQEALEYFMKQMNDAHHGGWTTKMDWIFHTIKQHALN
Sequence (P27986 whole entry partner): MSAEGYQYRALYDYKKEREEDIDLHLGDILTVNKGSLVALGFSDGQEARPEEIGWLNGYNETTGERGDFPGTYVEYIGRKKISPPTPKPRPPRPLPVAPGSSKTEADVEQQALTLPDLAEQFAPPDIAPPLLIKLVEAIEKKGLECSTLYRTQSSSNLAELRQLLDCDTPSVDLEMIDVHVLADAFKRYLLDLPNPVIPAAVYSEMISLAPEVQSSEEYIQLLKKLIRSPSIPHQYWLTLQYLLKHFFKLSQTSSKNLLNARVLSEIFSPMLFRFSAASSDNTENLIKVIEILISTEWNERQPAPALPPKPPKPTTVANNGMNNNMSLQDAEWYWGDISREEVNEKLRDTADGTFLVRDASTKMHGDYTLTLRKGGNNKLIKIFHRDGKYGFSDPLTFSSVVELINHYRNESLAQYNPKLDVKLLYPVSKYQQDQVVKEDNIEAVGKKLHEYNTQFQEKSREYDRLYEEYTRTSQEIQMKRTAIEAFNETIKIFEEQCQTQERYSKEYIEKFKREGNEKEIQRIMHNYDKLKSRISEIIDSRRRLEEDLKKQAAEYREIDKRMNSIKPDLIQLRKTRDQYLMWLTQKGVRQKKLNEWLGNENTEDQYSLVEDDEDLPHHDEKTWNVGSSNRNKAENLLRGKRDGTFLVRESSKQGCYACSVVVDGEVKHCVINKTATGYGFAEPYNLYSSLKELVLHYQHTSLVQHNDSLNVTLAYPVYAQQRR
Test: Fluorescence polarization assay for PI3K;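 further: PI3K kinase reaction on PIP2 with ATP, 30-60 min, product sensed by GST-GRP with red probe in fluorescence polarization (mP), controls without enzyme and at zero time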
Type: biochemical
Details: PI3Kα; read-out: PI3Kα IC50
Note: pIC50 values are expressed as the negative base-10 logarithm of concentration in M.

molecule | assay system | pIC50
COC(=O)Nc1ccc(-c2nc(N3CCOCC3)c3cn[nH]c3n2)cc1 [Compound 525] | PI3K (Homo sapiens) | 6.21

Prompt line: Dear colleague, I am looking for the recorded pIC50 of the following molecule: CNC(=O)Nc1ccc(-c2nc(N3CCOCC3)c3cnn(C4CCN(C(=O)c5ccccc5C)CC4)c3n2)cc1 [Compound 602]
Response line: 7.03

Prompt line: Which pIC50 is listed for O=C(NCCCc1ccccc1)Nc1ccc(-c2nc(N3CCOCC3)c3cnn(C4CCN(Cc5ccccc5)CC4)c3n2)cc1 [Compound 260] ?
Response line: 5.15

Prompt line: Bench note: what pIC50 did CNC(=NC#N)Nc1ccc(-c2nc(N3CCOCC3)c3cnn(C4CCN(Cc5cccnc5)CC4)c3n2)cc1 [Compound 651] show?
Response line: 6.11

Prompt line: GET /values?readout=pIC50&item= Cn1ncc2c(N3CCOCC3)nc(-c3cccnc3)nc21
Response line: 6.09

Prompt line: For OC1CCC(n2ncc3c(N4CCOCC4)nc(-c4ccc5[nH]ccc5c4)nc32)CC1 (centres unmarked) , what is its reported pIC50?
Response line: 5.95

Prompt line: So what's the measured pIC50 for this one? CC(C)(C)OC(=O)N1CCC(n2ncc3c(N4CCOCC4)nc(-c4ccc(NC(=O)Nc5ncccn5)cc4)nc32)CC1
Response line: 5.91

Prompt line: Query: pIC50; subject: C1=C(c2nc(N3CCOCC3)c3cnn(-c4ccccc4)c3n2)CCOC1
Response line: 6.12
